QUANTITY: melting point

Past entries and their recorded results:
GET /values?readout=melting point&item= `OCCCc1cnoc1-c1ccc2c(c1)OCO2` 45 to 46 °C

Try O=C(Nc1cnc2c(c1)nc1n2CCC1O)c1cc2cc(C(F)(F)F)ccc2n1Cc1cccc(F)c1 (stereo not drawn) next. 267 to 268 °C

Further cases:
GET /values?readout=melting point&item= CC(ON(C(C)(C)CO)C(C)(C)CO)c1ccccc1 (stereo not drawn) 79 to 81 °C

====

// reported melting point per item

Past entries and their recorded results:
GET /values?readout=melting point&item= `CSCC(=O)N(C)C(C)=Nc1cn(-c2cccnc2)nc1C` 54 to 57 °C

Try CN(C)c1[nH]c(=S)n(C2CCc3ccccc3C2)c1N(C)C (stereo not drawn) next. 182 to 184 °C

Try `COc1cc(NC(=O)Oc2ccc(N(CCCl)CCCl)cc2)cc(Nc2c3ccccc3nc3ccccc23)c1` next. 179 to 180 °C

Try `CC(=O)OC/C(=C(\C(=O)O)c1ccc(F)cc1)c1ccc(S(C)(=O)=O)cc1` next. 187 °C

Try `Cn1cc(-c2cccc(Cl)c2)c(=O)c(-c2cccc(Br)c2)c1` next. 192 °C

Proceeding to the next molecule to report its melting point.
GET /values?readout=melting point&item= C[Si](C)(C)OC1(C(=O)c2ccccc2)CC2CCC(C1)N2CCCC(c1ccc(F)cc1)c1ccc(F)cc1 (stereo not drawn) 111 to 113 °C
